# System name: VEGFR-2 kinase (Homo sapiens, UniProt P35968)
# Sequence (P35968 20-1356): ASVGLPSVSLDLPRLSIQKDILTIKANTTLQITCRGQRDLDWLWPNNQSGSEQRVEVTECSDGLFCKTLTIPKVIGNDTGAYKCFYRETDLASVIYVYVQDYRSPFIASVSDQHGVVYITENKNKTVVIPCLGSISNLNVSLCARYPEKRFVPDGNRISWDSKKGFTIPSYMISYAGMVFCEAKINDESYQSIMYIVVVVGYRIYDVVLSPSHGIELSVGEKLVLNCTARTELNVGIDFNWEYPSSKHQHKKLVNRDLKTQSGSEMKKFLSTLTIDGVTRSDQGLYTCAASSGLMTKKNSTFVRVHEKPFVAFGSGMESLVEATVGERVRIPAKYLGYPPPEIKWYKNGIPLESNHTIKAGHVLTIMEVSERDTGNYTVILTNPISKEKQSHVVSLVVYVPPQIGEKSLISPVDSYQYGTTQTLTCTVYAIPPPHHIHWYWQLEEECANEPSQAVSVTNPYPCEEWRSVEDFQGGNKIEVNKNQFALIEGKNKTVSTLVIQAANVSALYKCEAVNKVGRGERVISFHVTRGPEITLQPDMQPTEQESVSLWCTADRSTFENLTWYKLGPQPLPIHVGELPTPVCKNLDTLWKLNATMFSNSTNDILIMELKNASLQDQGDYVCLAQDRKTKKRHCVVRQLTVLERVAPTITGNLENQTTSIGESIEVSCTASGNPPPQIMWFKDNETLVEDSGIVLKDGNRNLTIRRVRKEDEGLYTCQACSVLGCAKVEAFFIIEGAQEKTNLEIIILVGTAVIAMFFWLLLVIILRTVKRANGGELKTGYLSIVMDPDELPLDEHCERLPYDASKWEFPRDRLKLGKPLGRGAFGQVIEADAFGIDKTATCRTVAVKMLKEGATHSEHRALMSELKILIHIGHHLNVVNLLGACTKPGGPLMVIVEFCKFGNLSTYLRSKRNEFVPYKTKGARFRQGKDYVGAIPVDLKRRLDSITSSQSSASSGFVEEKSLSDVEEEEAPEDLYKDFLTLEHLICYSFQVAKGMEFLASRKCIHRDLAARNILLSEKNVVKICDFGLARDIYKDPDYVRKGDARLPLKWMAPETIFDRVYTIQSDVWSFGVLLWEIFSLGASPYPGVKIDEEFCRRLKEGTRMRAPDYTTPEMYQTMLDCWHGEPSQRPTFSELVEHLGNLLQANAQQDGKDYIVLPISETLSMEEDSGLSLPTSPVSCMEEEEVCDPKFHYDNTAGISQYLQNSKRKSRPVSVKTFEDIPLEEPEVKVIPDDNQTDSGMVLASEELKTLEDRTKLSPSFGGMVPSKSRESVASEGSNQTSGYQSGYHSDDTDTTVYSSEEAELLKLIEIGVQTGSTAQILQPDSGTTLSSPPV
Measured quantity: pIC50
Hey, just a heads up that pIC50 is the negative log base 10 of the concentration in molar.

O=C(Nc1ccc(Oc2nc3ccccc3nc2Cl)cc1)c1cccnc1 [Compound 20d] | 7.16
O=C(Nc1ccccc1)Nc1ccc(Oc2nc3ccccc3nc2Cl)cc1 [Compound 19a] | 7.03
O=C(Nc1ccc(Oc2nc3ccccc3nc2Cl)cc1)c1ccccc1 [Compound 20a] | 6.97
CCCCNC(=O)Nc1ccc(Oc2ccccc2[N+](=O)[O-])cc1 [Compound 22b, 1-Butyl-3-(4-(2-nitrophenoxy)phenyl)urea] | 6.97

Lab note: next compound to report on.
Problem: Given O=C(Nc1ccc(Oc2nc(Cl)nc3ccccc23)cc1)c1cccnc1 [Compound 15d] , state its recorded pIC50.
Solution: 7.22

----------
# System name: HER2 (Homo sapiens)
# Sequence (P04626 23-1255): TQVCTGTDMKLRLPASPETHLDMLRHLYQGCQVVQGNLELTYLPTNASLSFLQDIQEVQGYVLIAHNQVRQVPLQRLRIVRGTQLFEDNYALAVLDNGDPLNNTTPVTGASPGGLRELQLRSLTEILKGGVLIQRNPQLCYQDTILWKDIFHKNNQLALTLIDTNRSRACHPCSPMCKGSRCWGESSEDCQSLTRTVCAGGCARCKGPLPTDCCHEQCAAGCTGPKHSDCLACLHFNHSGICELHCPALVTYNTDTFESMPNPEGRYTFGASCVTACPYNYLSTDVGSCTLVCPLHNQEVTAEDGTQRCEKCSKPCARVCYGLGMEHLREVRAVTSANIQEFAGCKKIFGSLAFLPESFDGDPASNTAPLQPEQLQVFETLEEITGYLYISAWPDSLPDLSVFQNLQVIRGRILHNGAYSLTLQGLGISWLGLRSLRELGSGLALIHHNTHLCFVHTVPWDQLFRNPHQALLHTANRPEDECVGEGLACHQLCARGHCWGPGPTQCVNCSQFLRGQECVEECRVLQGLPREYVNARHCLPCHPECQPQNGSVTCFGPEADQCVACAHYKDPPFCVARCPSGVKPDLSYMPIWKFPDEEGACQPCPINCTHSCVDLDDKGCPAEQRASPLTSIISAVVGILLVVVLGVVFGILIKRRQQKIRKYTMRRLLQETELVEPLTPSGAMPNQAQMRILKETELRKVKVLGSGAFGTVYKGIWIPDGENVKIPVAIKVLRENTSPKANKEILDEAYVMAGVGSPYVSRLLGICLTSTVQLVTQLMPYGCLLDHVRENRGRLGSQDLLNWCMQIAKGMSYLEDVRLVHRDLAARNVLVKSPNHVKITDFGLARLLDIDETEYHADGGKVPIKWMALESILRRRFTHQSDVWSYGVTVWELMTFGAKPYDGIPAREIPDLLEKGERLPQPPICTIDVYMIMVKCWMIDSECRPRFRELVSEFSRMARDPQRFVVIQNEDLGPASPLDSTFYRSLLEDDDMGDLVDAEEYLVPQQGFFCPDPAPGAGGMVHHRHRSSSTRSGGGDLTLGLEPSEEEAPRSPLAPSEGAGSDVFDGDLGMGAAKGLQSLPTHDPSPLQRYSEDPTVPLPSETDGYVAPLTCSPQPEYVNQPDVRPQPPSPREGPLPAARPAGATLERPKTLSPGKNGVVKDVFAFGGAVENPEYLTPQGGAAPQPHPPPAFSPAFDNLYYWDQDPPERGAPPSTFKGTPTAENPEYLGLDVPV
Measured quantity: pIC50
Hey, just a heads up that pIC50 is the negative log base 10 of the concentration in molar.

Problem: I'm curious: which pIC50 was measured for O=C(Nc1ccc(Oc2nc(Cl)nc3ccccc23)cc1)c1cccnc1 [Compound 15d] tested on HER2 (Homo sapiens)?
Solution: 6.60

----------
Recorded melting point for the following compounds

O=C(Nc1ccc(Oc2nc(Cl)nc3ccccc23)cc1)c1cccc(Cl)c1 [Compound 15c] | 229 to 230 °C

Problem: Given O=C(Nc1ccccc1)Nc1ccc(Oc2nc(Cl)nc3ccccc23)cc1 [Compound 14a] , state its recorded melting point.
Solution: 236 to 237 °C

----------
List of pIC50 tested on VEGFR-2 kinase (Homo sapiens, UniProt P35968).
Hey, just a heads up that pIC50 is the negative log base 10 of the concentration in molar.

Use the examples below as a reference point.
O=C(Nc1ccc(Oc2ccccc2[N+](=O)[O-])cc1)c1cccnc1 [Compound 23c, N-(4–(2-Nitrophenoxy)phenyl)nicotinamide] | 6.92
O=C(Nc1ccc(Oc2nc(Cl)nc3ccccc23)cc1)c1ccccc1 [Compound 15a] | 7.17
O=C(Nc1ccc(Oc2nc3ccccc3nc2Cl)cc1)c1ccc(Cl)cc1 [Compound 20b] | 6.94

Lab note: next molecule to report on.
Problem: Given O=C(Nc1ccc(Oc2ccccc2[N+](=O)[O-])cc1)c1cccc(Cl)c1 [Compound 23b] , state its recorded pIC50.
Solution: 6.98

----------
List of pIC50 tested on VEGFR-2 kinase (Homo sapiens, UniProt P35968).
Hey, just a heads up that pIC50 is the negative log base 10 of the concentration in molar.

Use the examples below as a reference point.
CCCCNC(=O)Nc1ccc(Oc2nc(Cl)nc3ccccc23)cc1 [Compound 14b] | 7.03
O=C(Nc1ccccc1)Nc1ccc(Oc2nc(Cl)nc3ccccc23)cc1 [Compound 14a] | 7.17
O=C(Nc1ccc(Oc2nc(Cl)nc3ccccc23)cc1)c1ccc(Cl)cc1 [Compound 15b] | 7.06
O=C(Nc1ccccc1)Nc1ccc(Oc2ccccc2[N+](=O)[O-])cc1 [Compound 22a] | 6.91
O=C(Nc1ccc(Oc2ccccc2[N+](=O)[O-])cc1)c1ccccc1 [Compound 23a, N-(4–(2-Nitrophenoxy)phenyl)benzamide] | 7.13

Problem: Given O=C(Nc1ccc(Oc2nc(Cl)nc3ccccc23)cc1)c1cccc(Cl)c1 [Compound 15c] , state its recorded pIC50.
Solution: 7.19

Problem: How about this compound: CCCCNC(=O)Nc1ccc(Oc2nc3ccccc3nc2Cl)cc1 [Compound 19b]
Solution: 7.12

Problem: How about this compound: O=C(Nc1ccc(Oc2nc3ccccc3nc2Cl)cc1)c1cccc(Cl)c1 [Compound 20c]
Solution: 7.06

----------
# System name: FGFR
# Protocol text: Multi-kinase assay (HTRF), FGFR
Recorded IC50 for the following compounds
Unit nM implied. Number only.

O=C(Nc1ccc(Oc2nc(Cl)nc3ccccc23)cc1)c1cccnc1 [Compound 15d] | 381

Lab note: next compound to report on.
Problem: Given C#Cc1cccc(Nc2ncnc3cc(OCCOC)c(OCCOC)cc23)c1 [Erlotinib, reference compound] , state its recorded IC50.
Solution: 34

----------
Recorded melting point for the following compounds

Use the examples below as a reference point.
CCCCNC(=O)Nc1ccc(Oc2nc3ccccc3nc2Cl)cc1 [Compound 19b] | 227 to 228 °C
O=C(Nc1ccccc1)Nc1ccc(Oc2ccccc2[N+](=O)[O-])cc1 [Compound 22a] | 175 to 176 °C
O=C(Nc1ccc(Oc2nc(Cl)nc3ccccc23)cc1)c1ccccc1 [Compound 15a] | 244 to 245 °C
CCCCNC(=O)Nc1ccc(Oc2ccccc2[N+](=O)[O-])cc1 [Compound 22b, 1-Butyl-3-(4-(2-nitrophenoxy)phenyl)urea] | 163 to 164 °C
O=C(Nc1ccc(Oc2ccccc2[N+](=O)[O-])cc1)c1ccccc1 [Compound 23a, N-(4–(2-Nitrophenoxy)phenyl)benzamide] | 197 to 198 °C
O=C(Nc1ccc(Oc2nc3ccccc3nc2Cl)cc1)c1cccc(Cl)c1 [Compound 20c] | 243 to 244 °C
O=C(Nc1ccc(Oc2nc3ccccc3nc2Cl)cc1)c1ccccc1 [Compound 20a] | 258 to 259 °C
O=C(Nc1ccc(Oc2nc3ccccc3nc2Cl)cc1)c1ccc(Cl)cc1 [Compound 20b] | 264 to 265 °C
O=C(Nc1ccc(Oc2ccccc2[N+](=O)[O-])cc1)c1cccc(Cl)c1 [Compound 23b] | 169 to 170 °C
CCCCNC(=O)Nc1ccc(Oc2nc(Cl)nc3ccccc23)cc1 [Compound 14b] | 214 to 215 °C

Problem: Given O=C(Nc1ccccc1)Nc1ccc(Oc2nc3ccccc3nc2Cl)cc1 [Compound 19a] , state its recorded melting point.
Solution: 248 to 249 °C

Problem: How about this compound: O=C(Nc1ccc(Oc2nc(Cl)nc3ccccc23)cc1)c1ccc(Cl)cc1 [Compound 15b]
Solution: 249 to 250 °C

Problem: How about this compound: O=C(Nc1ccc(Oc2nc3ccccc3nc2Cl)cc1)c1cccnc1 [Compound 20d]
Solution: 219 to 220 °C

Problem: How about this compound: O=C(Nc1ccc(Oc2ccccc2[N+](=O)[O-])cc1)c1cccnc1 [Compound 23c, N-(4–(2-Nitrophenoxy)phenyl)nicotinamide]
Solution: 160 to 161 °C
